Target: human PD-L1 on CHO-K1 cells (human, UniProt Q9NZQ7 19-290)
Sequence (Q9NZQ7 19-290): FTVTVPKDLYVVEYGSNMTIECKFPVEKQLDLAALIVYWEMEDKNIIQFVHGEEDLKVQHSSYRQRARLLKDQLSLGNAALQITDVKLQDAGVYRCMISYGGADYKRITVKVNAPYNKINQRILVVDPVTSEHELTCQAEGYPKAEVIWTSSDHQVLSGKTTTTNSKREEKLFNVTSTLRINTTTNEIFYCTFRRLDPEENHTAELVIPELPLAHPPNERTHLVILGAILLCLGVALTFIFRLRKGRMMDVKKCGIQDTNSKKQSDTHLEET
Experiment: cell-based or functional assay
Outcome measure: EC50 of PD-L1-based blockade assay (luciferase reporter) (nM)
# value in nM; strip the unit string

Binder	Numeric value
AS06618 sdAb (VHH, His6-tagged llama sdAb) VHH: EVQLVESGGRLVRAGDSLRLSCAASGRTFLSYAVGWFRQAPGTEREFVAGIRWSGGYTDYAEAVKGRFTISRDNAKNTVYLQMNSLKPEDTAVYYCAAHRTIATIPEKYEYEYWGQGTQVTVSS	44.5
AS06682 sdAb (VHH, His6-tagged llama sdAb) VHH: AVQLVESGGGLVQAGDSLRLSCTASGRTFLSYAVGWFRQAPGTEREFVAGIRWSGEHTDYAASVKGRFTISRDNAKNTVYLQMNSLKPEDTAVYYCAAHTTIATIPKKYEYEYWGQGTQVTVSS	42
AS11947 sdAb (VHH, His6-tagged llama sdAb) VHH: DVQLVESGGGLVQAGDSLRLTCSASGRTFISYAVGWFRQAPGTEREFVAGIRWNGISTDYTDSVKGRFTISRDNAKNTVYLQMNSLKPEDTAIYYCAAHRTIATIPNKYEYDHWGQGTQVTVSS	77.2

What EC50 of PD-L1-based blockade assay (luciferase reporter) value was documented for this binder, AS06628 sdAb (VHH, His6-tagged llama sdAb) VHH: QVQLVESGGGLVQAGGSLRLSCAASGRTFITYAIGWFRQAPGKEREFVTAINWSGSMTSYADSVKGRFTISRDNNKNMVYLQMNSLKPEDTAVYYCAAHRGAIAPMTQSVYDYWGQGTQVTVSS ?
24.2

What EC50 of PD-L1-based blockade assay (luciferase reporter) value was documented for this binder, AS06778 sdAb (VHH, His6-tagged llama sdAb) VHH: QVQLVESGGGLVQAGGSLKLSCAASGRTFITYAMGWFRQAPGKERELVAAISWSGSSTYSADSVKGRFTISRDNAKNTVYLQMNSLKPEDTAVYYCAAEVSARTGEHLPKLMGDYWGQGTQVTVSS ?
20.1

What EC50 of PD-L1-based blockade assay (luciferase reporter) value was documented for this binder, AS06791 sdAb (VHH, His6-tagged llama sdAb) VHH: QVQLVESGGGLVQAGGSLRLSCAASGRTFITYAIGWFRQAPGKEREFVTAINWSGSMTSYADSVKGRFTISRDNAKNTVYLQINGLKSEDTAVYYCAAHRGAIAPMTQSVYDYWGQGTQVTVSS ?
36.5

What EC50 of PD-L1-based blockade assay (luciferase reporter) value was documented for this binder, AS06686 sdAb (VHH, His6-tagged llama sdAb) VHH: AVQLVESGGGLVQAGDSLRLACAASGRTFLTYALGWFRQAPGKEREFVAGVSWSGSSTKYADSVKGRFTISRDNAKNTVYMQMNSLKPEDTAVYYCAAQISAIVPISAHEYQYWGQGTQVTVSS ?
352

What EC50 of PD-L1-based blockade assay (luciferase reporter) value was documented for this binder, AS12003 sdAb (VHH, His6-tagged llama sdAb) VHH: EVQLVESGGGLVQAGDSLRLSCAASGRTFLSYAVGWFRQAPGTEREFVAGIRWSGGSTDYADSVKGRFTISRDNAKNTVYLQMNSLKPEDTAVYYCAAHRTIATVPNKYEYDTWGQGTQVTVSS ?
96.2
